Provide the recorded GLP1 secretion stimulation for the entries that follow.
Experiment: glucagon-like peptide 1 release enhancers, primary assay, NCI-H716 cell line, NPC library (AID 1117341); also: reference of the scale not given here
Settings: NCI-H716 cells, at 10 µM, stronger effect = higher value
Numbers only, in %.

# count of solved cases: 5
[
  {
    "Compound": "NC[C@H]1O[C@H](O[C@H]2[C@H](O[C@@H]3O[C@H](CO)[C@@H](O)[C@H]3O)C(O)[C@H](N)C[C@@H]2N)[C@H](N)[C@@H](O)[C@@H]1O (some centres undefined)",
    "GLP1 secretion stimulation (%)": 0.7
  },
  {
    "Compound": "CC(=O)OCC(=O)[C@@]1(O)CC[C@H]2[C@@H]3CCC4=CC(=O)CC[C@]4(C)[C@H]3C(=O)C[C@@]21C",
    "GLP1 secretion stimulation (%)": 7
  },
  {
    "Compound": "CC(=O)OCC(=O)[C@@]1(O)CC[C@H]2[C@@H]3CCC4=CC(=O)C=C[C@]4(C)[C@H]3[C@@H](O)C[C@@]21C",
    "GLP1 secretion stimulation (%)": 1.2
  },
  {
    "Compound": "CC(C)(C)CC(C)(C)c1ccc(O)c(-n2nc3ccccc3n2)c1",
    "GLP1 secretion stimulation (%)": -1.5
  },
  {
    "Compound": "Nc1ccc([N+](=O)[O-])c(C(F)(F)F)c1",
    "GLP1 secretion stimulation (%)": -0.8
  }
]

Please look at the items below and tell me GLP1 secretion stimulation for each one, in order.
1. CNC(=O)CN(CCN(CCN(CC(=O)[O-])CC(=O)NC)CC(=O)[O-])CC(=O)[O-].O.[Gd+3]
2. NCCNc1cccc2ccccc12

Output:
1: -4.4; 2: 0.6

----------
Experiment: viability loss in pontine glioma line – cell-based, SU-DIPG-XXV, MIPE5.0, CellTiter-Glo, qHTS, dose response (AID 1347065);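 also: cells exposed to compound for 48 hours before ATP readout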
Conditions: CellTiter-Glo ATP luminescence
Inconclusive results are not listed. Active and inactive are the calls of the source. No cut-off is given here; in the data, nearly all actives have AC50 up to about 26 µM.
Respond only with the outcome that fits, drawn from y for active, n for inactive

Solved cases below.
[
  {
    "Molecule": "CCN(CC)C(=S)SSC(=S)N(CC)CC",
    "Class": "y"
  },
  {
    "Molecule": "COc1cc2ncn(-c3cc(OCc4ccccc4C(F)(F)F)c(C(N)=O)s3)c2cc1OC",
    "Class": "y"
  },
  {
    "Molecule": "NS(=O)(=O)c1cc2c(cc1Cl)NC=NS2(=O)=O",
    "Class": "n"
  }
]

Input: Test call for this molecule, please: "CC[C@H](C)C(=O)O[C@H]1C[C@@H](C)C=C2C=C[C@H](C)[C@H](CC[C@@H]3C[C@@H](O)CC(=O)O3)[C@H]21"
Output: n

----------
Could you please report measured z-score for the items listed next?
Test: survival rescue of mitochondrial mutant cells in low glucose, primary screen, MELAS cybrids, Rieske KO mouse fibroblasts, CellTiter-Glo (AID 1508586);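 also: z relative to plate mean and SD of compound and empty wells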
Conditions: MELAS cybrid survival, CellTiter-Glo 48 h, stronger effect = higher value
Answers are plain numbers.

[
  {
    "Compound": "CCn1c(-c2nonc2N)nc2c(C#CC(C)(C)O)ncc(OC3CCNCC3)c21",
    "Number": -0.105
  },
  {
    "Compound": "CCN(CC)S(=O)(=O)c1ccc(OC)c(Nc2ncc(-c3ccccc3)o2)c1",
    "Number": -0.446
  },
  {
    "Compound": "CCN(CCO)CCCC(C)Nc1ccnc2cc(Cl)ccc12 (configuration not stated)",
    "Number": -0.0994
  },
  {
    "Compound": "N#Cc1c(NC(=O)c2ccc(F)cc2)sc2c1CCCC2",
    "Number": -0.073
  },
  {
    "Compound": "Fc1ccc(Nc2nccc(-c3c(-c4ccc(C(F)(F)F)cc4)nn4ncccc34)n2)cc1F",
    "Number": -0.717
  },
  {
    "Compound": "CCOC(=O)[C@H](CCc1ccccc1)N[C@H]1CCc2ccccc2N(CC(=O)O)C1=O",
    "Number": 0.369
  },
  {
    "Compound": "Cc1cc(-c2ccco2)cc(C)c1/C=C/c1cncc(-c2nn[nH]n2)c1",
    "Number": -1.12
  },
  {
    "Compound": "COc1cc(C)c(NC(=O)CN(C)C)cc1Nc1nc(Nc2cccc(F)c2C(N)=O)c2cc[nH]c2n1",
    "Number": 1.87
  }
]

Provide z-score values for the following items, in order.
1. NC(=O)c1ccc(Oc2nccc(-c3c(-c4ccc(F)cc4)ncn3C3CCNCC3)n2)cc1
2. O=S(=O)(CCNCc1ccc(-c2ccc3ncnc(Nc4ccc(OCc5cccc(F)c5)c(Cl)c4)c3c2)o1)c1ccccc1
3. CNC(=O)c1cncc(/C=C/c2ccccc2C)c1
4. COC(=O)c1sc(-n2cnc3cc(OC)c(OC)cc32)cc1OCc1ccccc1C(F)(F)F
5. CN(C)CCCNc1nccc(-c2c(-c3ccc(F)cc3)nn3cc(C(F)(F)F)ccc23)n1
6. CS(=O)(=O)CCNCc1nc(-c2ccc3ncnc(Nc4ccc(OCc5cccc(C(F)(F)F)c5)cc4)c3c2)cs1

Output:
1. 0.243
2. 0.171
3. 0.836
4. -0.644
5. 0.443
6. 0.123

Would you be so kind as to report z-score for each listed record?
1. COc1cc(N2CCN(C(C)C)CC2)ccc1Nc1nc(Nc2cccc(F)c2C(=O)O)c2cc[nH]c2n1
2. OC(CCN1CCCCC1)(c1ccccc1)C1CCCCC1 (configuration not stated)
3. N#Cc1cccc(Nc2ncc(-c3ccccc3)o2)c1
4. COC(=O)Nc1nc2ccc(S(=O)(=O)c3ccc(NC(=O)Nc4cc(C(F)(F)F)ccc4F)cc3)cc2[nH]1
5. O=C1C(CCS(=O)c2ccccc2)C(=O)N(c2ccccc2)N1c1ccccc1 (configuration not stated)
6. CN(c1ccc(NC(=O)NCCN2CCOCC2)cc1)c1ccnc(Nc2ccc(CS(C)(=O)=O)cc2)n1

Output:
-0.385
0.423
1.35
0.00101
0.278
-0.011

Batch of 2 compounds: report z-score for each.
1. CC(C)c1ccc(Nc2nccc(-c3cnn4ncccc34)n2)cc1
2. O=C(O[C@H]1CN[C@H](C#Cc2cc3ncnc(Nc4ccc5c(cnn5Cc5ccccc5)c4)c3s2)C1)N1CCOCC1

Output:
1. 0.723
2. 0.875

Batch request: z-score per item, same order as input.
1. COc1cc2c(cc1Nc1nc(Nc3ccsc3C(N)=O)c3cc[nH]c3n1)N(C(=O)CN(C)C)CCC2(C)C
2. CN(C)CC/C=C1\c2ccccc2COc2ccccc21
3. CCN(CC)Cc1ccc(Nc2nccc(-c3cnn4ncccc34)n2)cc1
4. CN(C)CCCn1c(-c2nonc2N)nc2cnccc21
5. Cc1cccc(C2NNCC2c2ccc3ncccc3n2)n1 (configuration not stated)

Output:
1: 0.737; 2: 0.295; 3: 0.539; 4: -0.855; 5: 0.0567
